// provenance: ChEMBL document CHEMBL3885881

species: Rattus norvegicus; assay: DrugMatrix - Regimen: Daily Repeat; assay type: toxicity, organism-based, Sprague-Dawley; parameters: regimen Daily Repeat, gender Male, age 6-8 weeks; conditions: in vivo, iv, 0 mg/kg, […], tissue Blood, dose level Control, time 14 day, vehicle 100 % SALINE
Result Type: ABSOLUTE LYMPHOCYTE
Don't forget the unit after the value.

Quote ABSOLUTE LYMPHOCYTE reported for "CC(=O)[C@]1(O)Cc2c(O)c3c(c(O)c2[C@@H](O[C@H]2C[C@H](N)[C@H](O)[C@H](C)O2)C1)C(=O)c1ccccc1C3=O" please.
18600 cells/µL

---

Catalogue of compounds with associated LIPASE
species: Rattus norvegicus; test: DrugMatrix - Regimen: Daily Repeat; type: toxicity, organism-based, Sprague-Dawley; design: regimen Daily Repeat, gender Male, age 6-8 weeks; conditions: in vivo, po, 0 mg/kg, 120 h, tissue Plasma, route oral GAVAGE, dose level Control, time 5 day, vehicle .5 % CMC
Use u/L as the unit, but write only the number.

Solved entries (count: 3):
>>> df
                                   compound  units_label  measured_value
0       NC(=O)NC(=O)Cc1ccccc1 [PHENACEMIDE]          u/L            8.67
1  Cl.NC[C@H]1CC[C@H](C(=O)Oc2ccc(CCC(=O)O)cc2)CC1 [CETRAXATE HYDROCHLORIDE]          u/L             9.5
2  O=C(O)CCc1nc(-c2ccccc2)c(-c2ccccc2)o1 [OXAPROZIN]          u/L           10.33

Quote LIPASE reported for CC(C)(C#N)c1cc(Cn2cncn2)cc(C(C)(C)C#N)c1 [ANASTROZOLE] please.
8.83

Quote LIPASE reported for CC(=O)Nc1ccc2c(c1)Cc1ccccc1-2 [2-ACETYLAMINOFLUORENE] please.
9
